Entries and their nuclei count values follow.
Test Method Notes: inhibitors of E-selectin induction by TNFa, primary screen, imaging, HUVEC, immunofluorescence, MLSMR starter and 10KST1 sets (AID 487);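 further: 100% = median nuclei count of all wells on the same plate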
Experimental Setup: HUVEC TNFalpha-induced E-selectin immunofluorescence imaging, at 2 µM; measured here: cell number, toxicity

{"Molecule": "Cn1c(=O)c2c(nc(Br)n2CCSc2nc3ccccc3o2)n(C)c1=O", "nuclei count / %": 175}
{"Molecule": "C=C(Cl)COc1ccc2c(C)cc(=O)oc2c1", "nuclei count / %": 101}
{"Molecule": "CCOC(=O)Nc1ccc2c(c1)N(C(=O)OCCN(C)C)c1ccccc1CC2", "nuclei count / %": 75.4}
{"Molecule": "Cc1nn(C)c(C)c1CN(C)C(=O)c1cc2nc(-c3ccco3)cc(C(F)(F)F)n2n1", "nuclei count / %": 106}
{"Molecule": "Cn1c(=O)[nH]c(=O)c2c1nc(Br)n2CCSc1ncccn1", "nuclei count / %": 179}
{"Molecule": "CCn1c(SCC(=O)NC)nnc1C(C)C", "nuclei count / %": 104}
{"Molecule": "COC(=O)CSC1=C(C#N)C(c2ccc(F)cc2)CC(=O)N1 (stereo unspecified)", "nuclei count / %": 91}
{"Molecule": "Cc1cccc2c(=O)oc(-c3ccc4c(c3)C(=O)N(CC3CCCO3)C4=O)nc12 (stereo unspecified)", "nuclei count / %": 58.4}
{"Molecule": "CC(C)C(c1nnnn1C1CCCC1)N1CCCc2ccccc21 (stereo unspecified)", "nuclei count / %": 107}
{"Molecule": "O=C(NCCCN1CCOCC1)c1ccc(CS(=O)(=O)c2c(Cl)cccc2Cl)o1", "nuclei count / %": 103}
{"Molecule": "O=c1cc(O)nc2n1CCCS2", "nuclei count / %": 144}
